Biological target: cGKI (Mus musculus)
Sequence (P0C605 2-671): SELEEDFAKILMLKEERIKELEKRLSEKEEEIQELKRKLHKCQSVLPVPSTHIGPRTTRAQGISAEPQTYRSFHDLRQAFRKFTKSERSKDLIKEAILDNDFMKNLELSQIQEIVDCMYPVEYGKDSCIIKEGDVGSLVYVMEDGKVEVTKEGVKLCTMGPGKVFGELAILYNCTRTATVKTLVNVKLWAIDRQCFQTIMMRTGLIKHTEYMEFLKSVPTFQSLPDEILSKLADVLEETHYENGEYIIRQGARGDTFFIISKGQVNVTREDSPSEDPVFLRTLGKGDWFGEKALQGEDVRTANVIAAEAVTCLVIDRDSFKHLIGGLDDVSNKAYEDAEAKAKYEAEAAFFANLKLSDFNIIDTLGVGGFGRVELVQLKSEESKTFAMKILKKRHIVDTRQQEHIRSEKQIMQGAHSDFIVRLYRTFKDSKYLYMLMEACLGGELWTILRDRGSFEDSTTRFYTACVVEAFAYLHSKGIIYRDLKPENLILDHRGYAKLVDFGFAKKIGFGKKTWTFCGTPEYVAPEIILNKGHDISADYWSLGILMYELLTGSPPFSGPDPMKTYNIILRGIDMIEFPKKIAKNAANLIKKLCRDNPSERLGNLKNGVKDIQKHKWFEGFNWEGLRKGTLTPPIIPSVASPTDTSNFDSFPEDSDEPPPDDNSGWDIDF
measuredQuantity: EC50
Remember to put the unit after the number in your answer.

Req: Sample `Nc1nc2c(ncn2[C@@H]2O[C@@H]3COP(=O)(O)O[C@H]3[C@H]2O)c(=O)[nH]1` — what was its EC50?
Resp: 2000 nM
